B1: HDV Ribozyme (parent)
chain: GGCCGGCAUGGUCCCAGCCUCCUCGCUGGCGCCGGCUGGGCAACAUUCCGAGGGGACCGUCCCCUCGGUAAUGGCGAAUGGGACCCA

- Variants of: B1
- method: self-cleavage, relative activity (ratio to wild type); higher = more cleavage; co-transcriptional
readout.type: self-cleavage

C7U C44U: 0.374
G40A C64U: 0.925
G34C U69A: 0.0739
G1C G28C: 0
G31A C57A: 0.708

Documented self-cleavage of C44A G81A : 0.125

Documented self-cleavage of G40C C41U : 0.629

Documented self-cleavage of C3U G31C : 0.168

Documented self-cleavage of C32G U37C : 0.264

Documented self-cleavage of G34A G55U : 0.192

Documented self-cleavage of A42G G80U : 0.095

Taken from the RNAGym collection of RNA variant scans (doi:10.7554/elife.80360).
